Tested on: A498 renal
methodSummary: NCI tumour cell line growth inhibition, 48 h
measureName: TGI

Which value of TGI has been reported for CCOC(=O)C1=C(C)NC2SC(=O)/C(=C\c3ccccc3Cl)N2C1c1ccccc1 (stereo not given) in the records? > 100 µM

Which value of TGI has been reported for COc1ccc(CN2C(=O)C(Cc3cc(OC)c(OC)c(C)c3OC)NC(=O)/C2=C/c2cc(OC)c(OC)c(C)c2OC)cc1 (stereo not given) in the records? 97.6 µM

Which value of TGI has been reported for Cc1cc2cccnc2c2ncccc12 in the records? 7.3 µM

Which value of TGI has been reported for Cc1c(/C=N/NC(=S)Nc2cccc(Cl)c2)c(=O)n(-c2ccccc2)n1C in the records? 19.9 µM

Which value of TGI has been reported for C=CCC1C(=O)C(C(=O)OC)N2CCc3c([nH]c4ccccc34)C12 (stereo not given) in the records? > 100 µM

Which value of TGI has been reported for O=C(c1ccco1)C1CC(c2ccc3ccccc3c2O)=NN1 (stereo not given) in the records? > 100 µM

Which value of TGI has been reported for CC(=O)OCCOCNC(=S)N/N=C/c1ccc2ccccc2n1 in the records? > 100 µM

Which value of TGI has been reported for Oc1ccc(Cl)cc1-c1[nH]c(=S)nc(-c2ccccc2)c1Cl in the records? > 100 µM

Which value of TGI has been reported for Cc1cc(=O)n(-c2ccccc2)c(=O)o1 in the records? > 100 µM

Which value of TGI has been reported for CCn1nc(C)c2c1C(=O)NC(C)C(=O)N2 (stereo not given) in the records? > 100 µM

Which value of TGI has been reported for N#CNC(N)=NCCO in the records? > 100 µM

Which value of TGI has been reported for O=[N+]([O-])c1ccc(N=Nc2c(O)ccc3cc(S(=O)(=O)O)ccc23)cc1 in the records? > 100 µM

Which value of TGI has been reported for CSc1c(C#N)c(O)n(-c2ccc(C)cc2)c(=O)c1C#N in the records? > 100 µM

Which value of TGI has been reported for Nc1nc(N)c(C2=CCN(Cc3ccccc3)CC2)c(=O)[nH]1 in the records? > 100 µM

Which value of TGI has been reported for CN(C)CCNc1ccc2ncnc3c2c1C(=O)c1ccccc1-3 in the records? 9.25 µM

Which value of TGI has been reported for O=C1CSC(/C(=C/c2ccccc2)c2nc3ccccc3[nH]2)=N1 in the records? > 100 µM

Which value of TGI has been reported for N#CCCN(CCC#N)C(=O)c1cccc(C(=O)N(CCC#N)CCC#N)c1 in the records? > 100 µM

Which value of TGI has been reported for COc1ccc(N(C)CN(C)c2nc(N(C)C)nc(N(C)C)n2)cc1 in the records? > 100 µM

Which value of TGI has been reported for O=C(CCCn1c(=O)c2sc3ccccc3c2n2nnc(-c3ccccc3)c12)NCCc1cnc[nH]1 in the records? 3 µM

Which value of TGI has been reported for NCCC(=O)N[C@H](Cc1cc(O)c(O)c(SCC(NC(=O)CC[C@H](N)C(=O)O)C(=O)NCC(=O)O)c1)C(=O)O (stereo not given in full) in the records? > 50 µM

---

Tested on: LOX IMVI melanoma
methodSummary: NCI tumour cell line growth inhibition, 48 h
Classify by measured TGI: true if it is equal to or exceeds 30 µM, false if it is smaller.

Decide: TGI of O=c1cc(CO)n(CCc2c[nH]c3ccccc23)cc1O >= 30 µM? true

Decide: TGI of C=C1CC(Cn2ccc(=O)[nH]c2=O)(c2ccc(-c3ccccc3)cc2)OC1=O (stereo not given) >= 30 µM? false

Decide: TGI of C=C(C)C#CC(O)(C(=O)OC1CCN(C)CC1)C(C)C (stereo not given) >= 30 µM? true

Decide: TGI of CC(C)N(C(=O)C12C3C4C5C3C1(C(=O)N(C(C)C)C(C)C)C5(C#N)C42)C(C)C (stereo not given) >= 30 µM? true

Decide: TGI of O=C(CC(=O)c1ccc([N+](=O)[O-])cc1)C(=O)Nc1nccs1 >= 30 µM? true

Decide: TGI of COc1cc(=O)oc(/C=C/C=O)c1C >= 30 µM? false

Decide: TGI of O=c1[nH]c(=O)n(C2CC(O)C(CO)O2)cc1NN=NCCc1ccccc1 (stereo not given) >= 30 µM? true

Decide: TGI of CCCCC1Cc2ccccc2-c2n1c1ccccc1[n+]2C (stereo not given) >= 30 µM? true

Decide: TGI of CC1(C)CC(=O)/C(=C/C2CCNC2=S)C(=O)N1 (stereo not given) >= 30 µM? true

Decide: TGI of O[C@@]1(c2cccs2)c2cccc(Cl)c2[C@](O)(c2cccs2)c2cccc(Cl)c21 >= 30 µM? true

Decide: TGI of COc1cc(N2CCN(C(C)C)CC2)ccc1Nc1nc(Nc2cccc3ncccc23)c2cc[nH]c2n1 >= 30 µM? false

Decide: TGI of CCN(CC)c1ccc2c(c1)OC(=O)C(c1nnc(-c3ccc([N+](=O)[O-])cc3)o1)C2 (stereo not given) >= 30 µM? true

Decide: TGI of Cc1csc(/C=N/NC(=O)c2nnn(-c3ccnc4c(C(F)(F)F)cccc34)c2C)c1 >= 30 µM? true

Decide: TGI of O=c1[nH]c(=O)n(C2CC(O)C(CO)O2)cc1OCCc1ccccc1 (stereo not given) >= 30 µM? true

The measurements presented in this section are drawn from PubChem BioAssay (NCI).
